compounds and their reported 026 (C1 inhibitor), activity in wells
- SYSTEM_TESTED: activated human C1 (Homo sapiens, UniProt P09871)
- Sequence (P09871 438-688 limits assumed): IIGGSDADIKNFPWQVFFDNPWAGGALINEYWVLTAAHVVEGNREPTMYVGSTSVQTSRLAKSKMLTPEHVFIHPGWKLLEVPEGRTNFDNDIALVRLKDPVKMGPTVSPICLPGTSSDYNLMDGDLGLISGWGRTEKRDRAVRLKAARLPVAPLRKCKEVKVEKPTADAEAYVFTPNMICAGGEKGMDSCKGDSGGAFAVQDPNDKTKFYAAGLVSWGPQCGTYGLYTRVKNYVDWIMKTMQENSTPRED
- Sequence (P09871 16-437 limits assumed): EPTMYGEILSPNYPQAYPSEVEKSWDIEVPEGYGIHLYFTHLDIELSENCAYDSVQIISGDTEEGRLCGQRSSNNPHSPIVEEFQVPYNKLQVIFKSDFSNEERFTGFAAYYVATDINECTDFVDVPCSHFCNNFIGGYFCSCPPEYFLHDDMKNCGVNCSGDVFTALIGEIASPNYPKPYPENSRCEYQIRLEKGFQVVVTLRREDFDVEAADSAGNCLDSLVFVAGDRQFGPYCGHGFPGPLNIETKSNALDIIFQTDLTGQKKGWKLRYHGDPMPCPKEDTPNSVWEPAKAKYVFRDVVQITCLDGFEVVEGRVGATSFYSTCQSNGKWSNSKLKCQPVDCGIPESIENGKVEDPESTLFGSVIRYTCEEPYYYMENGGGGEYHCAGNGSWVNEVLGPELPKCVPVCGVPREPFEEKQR
- TEST_NAME: Test, Code 026 (C1 inhibitor)
- Type: biochemical
- TEST_CONDITIONS: In Vitro; serial two-fold dilution assay, higher well number indicates higher activity
- Text: This test measures the ability of activated human C1 to destroy fluid phase human C2 in the presence of C4 and appropriate dilutions of the test compound. An active inhibitor protects C2 from C1 and C4; (ii) Test, Code 035 (C3-C9 inhibitor). […]

STRUCTURE_STRING: O=C(Nc1cccc(C(=O)Nc2cc(S(=O)(=O)[O-])cc3cc(S(=O)(=O)[O-])ccc23)c1)Nc1cccc(C(=O)Nc2cc(S(=O)(=O)[O-])cc3cc(S(=O)(=O)[O-])ccc23)c1.[Na+].[Na+].[Na+].[Na+]
SYSTEM_TESTED: activated human C1 (Homo sapiens, UniProt P09871)
026 (C1 inhibitor), activity in wells / wells: 3
--
STRUCTURE_STRING: O=C(Nc1cccc(C(=O)Nc2ccc(S(=O)(=O)[O-])c3cccc(S(=O)(=O)[O-])c23)c1)Nc1cccc(C(=O)Nc2ccc(S(=O)(=O)[O-])c3cccc(S(=O)(=O)[O-])c23)c1.[Na+].[Na+].[Na+].[Na+]
SYSTEM_TESTED: activated human C1 (Homo sapiens, UniProt P09871)
026 (C1 inhibitor), activity in wells / wells: 2
--
STRUCTURE_STRING: O=C(Nc1cccc(C(=O)Nc2ccc3cc(S(=O)(=O)[O-])cc(S(=O)(=O)[O-])c3c2)c1)Nc1cccc(C(=O)Nc2ccc3cc(S(=O)(=O)[O-])cc(S(=O)(=O)[O-])c3c2)c1.[Na+].[Na+].[Na+].[Na+]
SYSTEM_TESTED: activated human C1 (Homo sapiens, UniProt P09871)
026 (C1 inhibitor), activity in wells / wells: 3
